Test: Plasma pharmacokinetics of paclitaxel, pazopanib and lapatinib in cycle 1
Type: in vivo, human
Details: human, plasma, intravenous, Paclitaxel AUC(0–∞), day 15; 50 mg m^−2 paclitaxel+400 mg pazopanib+1000 mg lapatinib; n=4; geometric mean (95% confidence interval)
RECORDED_METRIC: AUC(0-inf)
Don't forget the unit after the value.

**Q:** Entry CC(=O)O[C@H]1C(=O)[C@@]2(C)[C@H]([C@H](OC(=O)c3ccccc3)[C@]3(O)C[C@H](OC(=O)[C@H](O)[C@@H](NC(=O)c4ccccc4)c4ccccc4)C(C)=C1C3(C)C)[C@]1(OC(C)=O)CO[C@@H]1C[C@@H]2O [paclitaxel] : reported AUC(0-inf) = ?
**A:** 3070 ng·h/mL

* * *

Assay: Plasma pharmacokinetics of paclitaxel, pazopanib and lapatinib in cycle 1
Format: in vivo, human
Details: human, plasma, intravenous, Paclitaxel Cmax, day 15; 50 mg m^−2 paclitaxel+400 mg pazopanib+1000 mg lapatinib; n=5; geometric mean (95% confidence interval)
RECORDED_METRIC: Cmax (ng/mL)
The response must be a number in ng/mL with no trailing unit.

**Q:** Entry CC(=O)O[C@H]1C(=O)[C@@]2(C)[C@H]([C@H](OC(=O)c3ccccc3)[C@]3(O)C[C@H](OC(=O)[C@H](O)[C@@H](NC(=O)c4ccccc4)c4ccccc4)C(C)=C1C3(C)C)[C@]1(OC(C)=O)CO[C@@H]1C[C@@H]2O : reported Cmax = ?
**A:** 2330

* * *

Test: Plasma pharmacokinetics of paclitaxel, pazopanib and lapatinib in cycle 1
Assay type: in vivo, human
Conditions: human, plasma, oral, Lapatinib AUC(0–24), day 15 of cycle 1; paclitaxel 50 mg m^−2, pazopanib 800 mg, lapatinib 1000 mg; n=3; median (range)
RECORDED_METRIC: AUC(0-t) (ng·h/mL)
The response must be a number in ng·h/mL with no trailing unit.

**Q:** Entry CS(=O)(=O)CCNCc1ccc(-c2ccc3ncnc(Nc4ccc(OCc5cccc(F)c5)c(Cl)c4)c3c2)o1 [lapatinib] : reported AUC(0-t) = ?
**A:** 51400

* * *

Experiment: Plasma pharmacokinetics of paclitaxel, pazopanib and lapatinib in cycle 1
Format: in vivo, human
Details: human, plasma, intravenous, 50 mg m^−2
RECORDED_METRIC: Cmax (ng/mL)
The response must be a number in ng/mL with no trailing unit.

**Q:** Entry CC(=O)O[C@H]1C(=O)[C@@]2(C)[C@H]([C@H](OC(=O)c3ccccc3)[C@]3(O)C[C@H](OC(=O)[C@H](O)[C@@H](NC(=O)c4ccccc4)c4ccccc4)C(C)=C1C3(C)C)[C@]1(OC(C)=O)CO[C@@H]1C[C@@H]2O : reported Cmax = ?
**A:** 1440

* * *

Assay: Plasma pharmacokinetics of paclitaxel, pazopanib and lapatinib in cycle 1
Type: in vivo, human
Conditions: human, plasma, oral, Lapatinib AUC(0–24), day 15 of cycle 1; paclitaxel 80 mg m^−2, pazopanib 800 mg, lapatinib 1000 mg; n=1; individual value
RECORDED_METRIC: AUC(0-t) (ng·h/mL)
The response must be a number in ng·h/mL with no trailing unit.

**Q:** Entry CS(=O)(=O)CCNCc1ccc(-c2ccc3ncnc(Nc4ccc(OCc5cccc(F)c5)c(Cl)c4)c3c2)o1 : reported AUC(0-t) = ?
**A:** 11600

Numbers sourced from paper PMC4037836.
